The origin of these recorded values is PubChem BioAssay (NCI).

Would you mind telling me the reported GI50 of each entry?
System: OVCAR-8 ovarian
experimental-details: NCI tumour cell line growth inhibition, 48 h

Request: Which GI50 is listed for `C[C@@]12C(=O)OC(=O)[C@]1(C)[C@H]1CC[C@@H]2O1` ?
Response: 2100 nM

Request: # iterate: `CS(=O)(=O)Nc1cc(-c2ccc3ncnc(Nc4ccc5c(cnn5Cc5cccc(F)c5)c4)c3c2)cnc1Cl`
Response: 1570 nM

Request: # iterate: `COc1ccc(/C=C/c2nnc(/C=C/c3ccc(OC)c(OC)c3)o2)cc1OC`
Response: 8780 nM

Request: # iterate: CCCCNCC(O)c1cc2c(Cl)cc(Cl)cc2c2cc(C(F)(F)F)ccc12 (centres undefined)
Response: 1890 nM

====

Tested on: SK-MEL-2 melanoma
experimental-details: NCI tumour cell line growth inhibition, 48 h
Would you mind telling me the reported TGI of each entry?

Request: For SK-MEL-2 melanoma, provide TGI of `S=C(/C=C1\SC(=Nc2ccccc2)C(=Nc2ccccc2)N1c1ccccc1)Nc1ccccc1` please.
Response: > 100 µM

Request: # iterate: `CC(=O)c1nc2ccccc2n1CCN1CCN(C)CC1`
Response: 47.6 µM

Request: # iterate: `COC(OC)(c1ccccc1)C(Br)Br`
Response: > 100 µM

Request: # iterate: O=C(OC1CC(n2cc(F)c(=O)[nH]c2=O)OC1CSC(=O)c1ccccc1)c1ccccc1 (stereo not drawn)
Response: > 100 µM

Request: # iterate: `O=C(NCCc1[nH]nc2c1C(=O)C=C(Nc1ccccc1)C2=O)OCc1ccccc1`
Response: > 100 µM

Request: # iterate: `c1ccc(CNCCN2CCNCC2)nc1`
Response: > 100 µM

Request: # iterate: `O=C(O/N=C1/CCCC/C1=C\c1ccccc1)c1ccc(Cl)c(Cl)c1`
Response: > 100 µM

Request: # iterate: `Cc1ccc(-c2c(C#N)[n+](=O)c3cc(Cl)c(Cl)cc3n2[O-])cc1`
Response: 34.7 µM

Request: # iterate: COc1cc2c(cc1OC)C1Cc3sccc3CN1CC2 (stereo not drawn)
Response: > 100 µM

Request: # iterate: `COc1ccc2nc(NNC(=O)c3cnccn3)c3cccn3c2c1`
Response: > 100 µM

Request: # iterate: COc1cc2c(c(OC)c1OC)-c1cccc(=O)cc1C(NC(C)=O)CC2 (stereo not drawn)
Response: > 24.8 µM

Request: # iterate: COc1ccc(N2C(=O)C3CC(c4ccc(C)cc4)c4c([nH]c5ccccc45)C3C2=O)cc1 (stereo not drawn)
Response: > 100 µM

Request: # iterate: `O=C1C=CC(=O)c2c(O)c(NCCCN3CCOCC3)c(Cl)c(O)c21`
Response: 0.526 µM

Request: # iterate: `COc1cc(Br)cc2cc(C3=CSC4=NCCN34)c(=O)oc12`
Response: 40 µM

Request: # iterate: C=CCNC(=O)N1CC(C)C(=O)Nc2ccccc21 (stereo not drawn)
Response: > 100 µM

Request: # iterate: `CC(C)CCNc1ncnc2[nH]ncc12`
Response: > 100 µM

Request: # iterate: `c1ccc(-c2c(-c3ccccc3)[n+](Cc3ccc4ccccc4c3)c(-c3cccc4ccccc34)n2Cc2ccc3ccccc3c2)cc1`
Response: 0.758 µM

Request: # iterate: CC[C@@]1(O)C[C@H](OC2CC(N(C)C)C(OC3CC(O)C(OC4CC(O)C(O)C(C)O4)C(C)O3)C(C)O2)c2c(cc3c(c2O)C(=O)c2c(O)ccc(O)c2C3=O)[C@H]1C(=O)OC (stereo partly drawn)
Response: 0.124 µM

Request: # iterate: Cc1ccc(NC(=O)OCC(COc2ccc(Cl)cc2)OC(=O)Nc2ccc(C)cc2)cc1 (stereo not drawn)
Response: 58.4 µM

Request: # iterate: O=C1Cc2c([nH]c3ccccc23)C2(CC3CCCCN13)OCCO2 (stereo not drawn)
Response: > 100 µM

Request: # iterate: O=C(O)C1(c2ccccc2)CCCNCC1 (stereo not drawn)
Response: > 100 µM

Request: # iterate: `COc1cc(-c2nc3ccccc3s2)ccc1OCCCCCOc1cc2c(cc1OC)C(=O)N1CCC[C@H]1C=N2`
Response: 0.463 µM

Request: # iterate: `C[C@H]1COC(c2ccccn2)=N1`
Response: > 100 µM

Request: # iterate: `ClCCC[Si]12OCCN(CCO1)CCO2`
Response: > 100 µM

Request: # iterate: CC1CSC(=S)N1C(=O)N1C(=S)SCC1C (stereo not drawn)
Response: 53.2 µM

Request: # iterate: `COc1ccc(CCn2c3c(c4c(O)cccc42)C(=O)c2ccccc2-3)cc1OC`
Response: > 95.3 µM

Request: # iterate: CC1(C)SC2C(NC(=O)C(C(=O)O)c3ccccc3)C(=O)N2C1C(=O)O (stereo not drawn)
Response: > 100 µM

Request: # iterate: CC(=O)OC1COC(N2CCc3ccccc32)C(OC(C)=O)C1OC(C)=O (stereo not drawn)
Response: > 100 µM

Request: # iterate: Nc1ncnc2c1ncn2C1OC(CSCc2ccc(Cl)cc2)C(O)C1O (stereo not drawn)
Response: 68.7 µM

Request: # iterate: `COc1cc(/C=N\O)cc(/C=N/O)c1O`
Response: 62.7 µM

Request: # iterate: `Cn1cc(-c2nc3c(F)cc4[nH]ncc4c3c3c2CCCC3)c(C(F)(F)F)n1`
Response: 30.5 µM

Request: # iterate: `CCCCCCCCc1cc[n+](CC(=O)c2ccc(Br)cc2)cc1`
Response: 3.03 µM

Request: # iterate: CCOC(=O)NC1C2CC(=O)C(O2)C1OCc1ccccc1 (stereo not drawn)
Response: > 100 µM

Request: # iterate: COc1ccccc1N1C(=O)/C(=C\c2cc(OC)c(OC)c(OC)c2)SC1c1ccccc1 (stereo not drawn)
Response: > 100 µM

Request: # iterate: Clc1ccc(CCC(Cn2ccnc2)Sc2c(Cl)cccc2Cl)cc1 (stereo not drawn)
Response: 7.29 µM

Request: # iterate: Cc1cc(OCC(O)CO)ccc1-c1ccccc1 (stereo not drawn)
Response: > 100 µM

Request: # iterate: CCC12CCCN3CCc4c(n(c5ccccc45)C(O)(C(=O)OC)C1)C32 (stereo not drawn)
Response: > 100 µM

Request: # iterate: C=CCCC1CCCNC1=S (stereo not drawn)
Response: > 100 µM

====

Tested on: SN12C renal
experimental-details: NCI tumour cell line growth inhibition, 48 h
Classify as follows. Reported TGI greater than or equal to 20 µM: label 1. Reported TGI below: label 0.

Request: Can `COc1ccc2nc(NNC(=O)c3cnccn3)c3cccn3c2c1` be said to have TGI at or above 20 µM?
Response: label 0

Request: # iterate: `COc1ccc(Nc2nccc(Nc3ccc4[nH]ncc4c3)n2)cc1`
Response: label 1

Request: # iterate: O=C(N/S(=N/S(=O)(=O)c1ccc(Br)cc1)C(Cl)(Cl)Cl)c1ccccc1 (stereo unspecified)
Response: label 1

Request: # iterate: `Cc1[nH]c2nccn2c(=O)c1CCCl`
Response: label 1

Request: # iterate: `O=c1[nH]cnc2c(COCCCO)c[nH]c12`
Response: label 1

Request: # iterate: `COc1ccc2nc3ccccc3c(NCCN(C)CCCl)c2c1`
Response: label 0

Request: # iterate: CCOC(=O)NC1C2CC(=O)C(O2)C1OCc1ccccc1 (stereo unspecified)
Response: label 1

Request: # iterate: CC(C)C1CNC2N1C(=O)C2(C)OCc1ccccc1 (stereo unspecified)
Response: label 1

Request: # iterate: `COc1cccc2c1-c1ccccc1[C@H](Nc1ccccc1)[C@@]2(C)O`
Response: label 0

Request: # iterate: CC(C)C1=C(O)C2=C(C(=O)C1=O)C1(C)CCCC(C)(C)C1CC2O (stereo unspecified)
Response: label 1

====

System: NCI/ADR-RES ovarian
experimental-details: NCI tumour cell line growth inhibition, 48 h
Would you mind telling me the reported TGI of each entry?
Your answer should be a plain number; it is taken to be in µM.

Request: Which TGI is listed for `O=C(/C=C/c1cccc(Br)c1)c1ccc(Cl)cc1` ?
Response: 59.2

Request: # iterate: `CN(C)CCNC(=O)c1ccc(Cl)c2ccc(-c3ccccc3)nc12`
Response: 12.1

Request: # iterate: `C/C(=N\O)c1ccc2cc(Br)c3ccccc3c2c1`
Response: 47.5

Request: # iterate: `Cc1cc2c([nH]1)CSc1cc(S(=O)(=O)c3ccccc3)c(=O)[nH]c1-2`
Response: 2.17

Request: # iterate: `CCOC(=O)/C=C(\C(=O)OCC)n1ccc(=O)n(Cc2cnnn2COCCOC(C)=O)c1=O`
Response: 58.7

Request: # iterate: `C=C(C)C(=O)Oc1ccc(N=Nc2ccc(C)cc2)ccc1=O`
Response: 11.4

Request: # iterate: `CC(=O)c1sc2c(c1OC(=O)c1ccc(Cl)cc1Cl)c(=O)n(-c1ccccc1)c(=S)n2-c1ccccc1`
Response: 20.2
